Please go through the items and note down their gcPBM binding intensity (ln).
- System: PfAP2-LT AP2 domain (GST-tagged)
- PROTOCOL DETAILS: gcPBM binding intensity (ln(normalized median fluorescence intensity)); higher = stronger DNA binding
The full ranking holds about 25,000 sequences; the median of “ln(normalized median fluorescence intensity)” is about 8.9, and the highest 2% start at about 10. This excerpt belongs to a sample that is enriched for the highest values.

Would you kindly share the measured gcPBM binding intensity (ln) for AATATATAAACATATACACACAAAAACATATATATA [CACACA_site4855] ? 9.21

Would you kindly share the measured gcPBM binding intensity (ln) for ATAAAACAAAAACACACACACATACACAAAAAAAAA [CACACA_site3848] ? 10.1

Would you kindly share the measured gcPBM binding intensity (ln) for AAGAAAATAGGGTTCATAGGATTATACTTTTGGAAT [TGCATGCA_negctrl_site80] ? 8.59

Would you kindly share the measured gcPBM binding intensity (ln) for TAAATACAGACATATACACACATATATATATATATA [CACACA_site4382] ? 9.93

Would you kindly share the measured gcPBM binding intensity (ln) for TACACGCATAAACACACACACACACCCATATATATA [CACACA_site8114] ? 10.2

Would you kindly share the measured gcPBM binding intensity (ln) for ATACAAATTGTTTAAAGTACAAATTACACCTCTTAA [XGTACX_site6888] ? 8.62

Would you kindly share the measured gcPBM binding intensity (ln) for GGAATATAAATACATACACACATATATATATATATA [CACACA_site4998] ? 10

====

- System: PfAP2-LT AP2 domain (GST-tagged)
- PROTOCOL DETAILS: gcPBM binding intensity (ln(normalized median fluorescence intensity)); higher = stronger DNA binding
Over roughly 25,000 sequences, “ln(normalized median fluorescence intensity)” has its median near 8.9; the highest 2% begin near 10. This excerpt belongs to a sample that is enriched for the highest values.
RECORDED ENDPOINT: gcPBM binding intensity (ln)
API doc: respond with a numeric literal and nothing else, no unit.

Would you kindly share the measured gcPBM binding intensity (ln) for TGATAAGAAAAAGACTTTTCCTTCTTACTTTCTATG [CACACA_negctrl_site782] ? 8.55

Would you kindly share the measured gcPBM binding intensity (ln) for AAGGTAAACGGACACACACACATACAAAAAAAAAAA [CACACA_site5961] ? 9.77

Would you kindly share the measured gcPBM binding intensity (ln) for TACAAACAGACATATACACACAAAAAAAAAATAAAA [CACACA_site2562] ? 9.16

Would you kindly share the measured gcPBM binding intensity (ln) for AAAACAAACAGACACACACACATATATATATATATA [CACACA_site3655] ? 10.4

Would you kindly share the measured gcPBM binding intensity (ln) for TATATATACAGACACATACACACAAATAAAAAAACA [CACACA_site3413] ? 9.39

====

Please go through the items and note down their gcPBM binding intensity (ln).
- Test system: PfAP2-LT AP2 domain (GST-tagged)
- PROTOCOL DETAILS: gcPBM binding intensity (ln(normalized median fluorescence intensity)); higher = stronger DNA binding
In all, about 25,000 sequences were measured (“ln(normalized median fluorescence intensity)”: median about 8.9, highest 2% from about 10 on). Only a selection was taken, and the highest values are over-represented in it overall.
API doc: respond with a numeric literal and nothing else, no unit.

Form: Entry = ATATTATTTTAAAGTACACACATATATTAATATATA [CACACA_site2315] | System = PfAP2-LT AP2 domain (GST-tagged) | gcPBM binding intensity (ln) = ____ 8.76

Form: Entry = CTGTTTTTGTTTTAAAGTACATTGTTCAATATACAT [XGTACX_site5288] | System = PfAP2-LT AP2 domain (GST-tagged) | gcPBM binding intensity (ln) = ____ 8.82

Form: Entry = GTGTATTTATGTTATACACACAAAAATATTTTGTAT [CACACA_site4305] | System = PfAP2-LT AP2 domain (GST-tagged) | gcPBM binding intensity (ln) = ____ 9.01

Form: Entry = AAAATTATTTTTATGTGTACTTATTTATTATTTATA [XGTACX_site6665] | System = PfAP2-LT AP2 domain (GST-tagged) | gcPBM binding intensity (ln) = ____ 8.79

Form: Entry = AACCTATCTATAGGAACAATATATATATATATAATT [CACACA_negctrl_site1707] | System = PfAP2-LT AP2 domain (GST-tagged) | gcPBM binding intensity (ln) = ____ 8.98

Form: Entry = AAAAAAAAAAATACTCGTACATAAACCTATACATTT [XGTACX_site6494] | System = PfAP2-LT AP2 domain (GST-tagged) | gcPBM binding intensity (ln) = ____ 8.83

Form: Entry = TTATTATTTTATAACACACACATATATATTATATCT [CACACA_site1434] | System = PfAP2-LT AP2 domain (GST-tagged) | gcPBM binding intensity (ln) = ____ 9.11

Form: Entry = TGGTATATATTTCCTTGTACATATAATATATATTGT [XGTACX_site3961] | System = PfAP2-LT AP2 domain (GST-tagged) | gcPBM binding intensity (ln) = ____ 8.94

Form: Entry = TATACAGATATATATACACACATATATATAAATACA [CACACA_site4383] | System = PfAP2-LT AP2 domain (GST-tagged) | gcPBM binding intensity (ln) = ____ 9.24

Form: Entry = AAAATAAGCGTGAAACGTACATATTACATTATTATA [XGTACX_site8914] | System = PfAP2-LT AP2 domain (GST-tagged) | gcPBM binding intensity (ln) = ____ 8.78

Form: Entry = TAAATACTAATATGTACACACATATAGATATAGATT [CACACA_site7247] | System = PfAP2-LT AP2 domain (GST-tagged) | gcPBM binding intensity (ln) = ____ 8.96
